- System: MOLT-4 leukemia
- assay details: NCI tumour cell line growth inhibition, 48 h
value type: TGI

[[record]]
molecule = "O=S(=O)(NC1=NCCN1C(=S)SN1CCn2c1nsc2=S)c1ccc(Cl)cc1"
assay_result = "21.7 µM"

[[record]]
molecule = "N#Cc1c(NC(=S)Nc2ccc(Cl)cc2)sc2c1CCN(N1CCc3c(sc(NC(=S)Nc4ccc(Cl)cc4)c3C#N)C1)C2"
assay_result = "> 100 µM"

[[record]]
molecule = "O=C(Nc1ccc(Cl)cc1C(F)(F)F)C(=O)Nn1c(=S)[nH]c2ccccc2c1=O"
assay_result = "> 100 µM"

[[record]]
molecule = "O=C1c2cc3c(cc2-c2c1c1cc(F)c(F)cc1c(=O)n2CCCn1ccnc1)OCO3"
assay_result = "1.24 µM"

[[record]]
molecule = "COC(=O)c1sc(=O)sc1SCc1cccc(CSc2sc(=O)sc2C(=O)OC)c1"
assay_result = "> 100 µM"

[[record]]
molecule = "COc1ccc(-c2ccc(OC)c(OC)c2OC)cc1"
assay_result = "> 100 µM"

[[record]]
molecule = "Cc1nnc2n1N=C(c1ccccc1)C(c1ccccc1)S2 (stereo not drawn)"
assay_result = "> 100 µM"

[[record]]
molecule = "C=C(NC(=O)C(=C)NC(=O)c1ccc2c(n1)-c1coc(n1)C(=C)NC(=O)C(=C)NC(=O)c1nc(oc1C)C(=C)NC(=O)C(C(C)(C)O)NC(=O)C(=C)NC(=O)c1coc(n1)/C(=C/C)NC(=O)[C@H]([C@@H](C)O)NC(=O)c1csc-2n1)C(N)=O (stereo partly drawn)"
assay_result = "> 87.5 µM"


----------
- System: HL-60(TB) leukemia
- assay details: NCI tumour cell line growth inhibition, 48 h
Entries and their GI50 values follow.
value type: GI50

[[record]]
compound = "COc1ccc(-n2cc(-c3ccc(OC)c(OC)c3)[nH]c2=O)cc1"
assay_result = "> 100000 nM"

[[record]]
compound = "Cn1c(COC(=O)NCCc2ccccn2)nc2c(N3CCOCC3)nc(Cl)nc21"
assay_result = "1170 nM"

[[record]]
compound = "C[C@@H]1C[C@@H]([C@H](O)CC2CC(=O)NC(=O)C2)C(=O)[C@@H](C)C1"
assay_result = "202 nM"

[[record]]
compound = "O=C1NC(=NCCc2ccc(Cl)cc2)S/C1=C\\c1ccc2ncccc2c1"
assay_result = "8690 nM"

[[record]]
compound = "Cc1cccc(N2C(=O)/C(=C/C(Cl)=C/c3ccc([N+](=O)[O-])cc3)SC2=S)c1C"
assay_result = "1910 nM"

[[record]]
compound = "NC(N)=N/N=C\\c1ccc(OCc2ccccc2)cc1"
assay_result = "2560 nM"

[[record]]
compound = "O=c1[nH]c(C2CCCN2)nc2c1oc1ccc(Cl)cc12 (centres undefined)"
assay_result = "> 100000 nM"

[[record]]
compound = "CC(=O)[CH-]C(C)=O.CC(=O)[CH-]C(C)=O.[O-]c1ccccc1.[O-]c1ccccc1.[Ti+4]"
assay_result = "> 100000 nM"

[[record]]
compound = "CN(C)CCC(=O)Nc1ccc(-n2cc(-c3cccc(NC(=S)Nc4cccc(-c5cn(-c6ccc(NC(=O)CCN(C)C)cc6)nn5)c4)c3)nn2)cc1"
assay_result = "> 100000 nM"


----------
Entries and their GI50 values follow.
- System: NCI-H23 lung
- assay details: NCI tumour cell line growth inhibition, 48 h
value type: GI50

[[record]]
molecule = "COc1cc(/C=N/NC(=O)c2cnn3c2NC(c2ccccc2)C3)ccc1OC1CCCC1 (stereo not drawn)"
test_target = "NCI-H23 lung"
assay_result = "1.44 µM"

[[record]]
molecule = "C[C@@]1(F)[C@H](O)[C@@H](CO)O[C@H]1n1ccc(=O)[nH]c1=O"
test_target = "NCI-H23 lung"
assay_result = "> 100 µM"

[[record]]
molecule = "Cn1c(I)c(C#C[Si](C)(C)C)c(=O)n(C(=O)c2ccccc2)c1=O"
test_target = "NCI-H23 lung"
assay_result = "8.28 µM"

[[record]]
molecule = "CCCC(=O)O[C@]1(C)CC[C@@H]2[C@H]3[C@@H]1[C@@H]1C[C@@](C)(O)[C@H](OC)CC[C@](C)(OC(=O)[C@@H]2C)[C@H]3O1"
test_target = "NCI-H23 lung"
assay_result = "96.1 µM"

[[record]]
molecule = "O=S(=O)(NC1=NCCN1C(=S)SN1CCn2c1nsc2=S)c1ccc(Cl)cc1"
test_target = "NCI-H23 lung"
assay_result = "14.4 µM"

[[record]]
molecule = "CC1=NN(c2cccc(Cl)c2)C(=O)/C1=C\\c1cn(CC(O)CN2CCCCC2)c2ccccc12 (stereo not drawn)"
test_target = "NCI-H23 lung"
assay_result = "12.4 µM"

[[record]]
molecule = "CCOC(=O)Nc1ccc2nc(-c3cscn3)[nH]c2c1"
test_target = "NCI-H23 lung"
assay_result = "8.47 µM"

[[record]]
molecule = "CN(C)CCC(=O)Nc1ccc(-n2cc(-c3cccc(NC(=S)Nc4cccc(-c5cn(-c6ccc(NC(=O)CCN(C)C)cc6)nn5)c4)c3)nn2)cc1"
test_target = "NCI-H23 lung"
assay_result = "57.2 µM"


----------
- Test system: OVCAR-5 ovarian
- assay details: NCI tumour cell line growth inhibition, 48 h
Entries and their TGI values follow.
value type: TGI

[[record]]
molecule = "CCN(CC)C(=S)SSC(C)C"
assay_result = "32.6 µM"

[[record]]
molecule = "Clc1ccccc1C(Nc1cnccn1)Nc1cnccn1"
assay_result = "> 100 µM"

[[record]]
molecule = "O=[N+]([O-])c1ccc(-n2nc3ccc4nonc4c3n2)cc1"
assay_result = "> 100 µM"

[[record]]
molecule = "Cn1c(COC(=O)NCCc2ccccn2)nc2c(N3CCOCC3)nc(Cl)nc21"
assay_result = "3.68 µM"

[[record]]
molecule = "CC(C)(C)C1CCC2c3c([nH]c4ccccc34)C3C(=O)N(c4ccc([N+](=O)[O-])cc4)C(=O)C3C2C1 (stereo unspecified)"
assay_result = "> 100 µM"

[[record]]
molecule = "O=C(O)C(Cc1ccccc1)NCc1c(O)ccc2c(-c3ccccc3)cc(=O)oc12 (stereo unspecified)"
assay_result = "> 100 µM"


----------
Entries and their log10(TGI) values follow.
- Test system: KM12 colon
- assay details: NCI tumour cell line growth inhibition, 48 h
value type: log10(TGI) (log10 of the value in µM)

[[record]]
molecule = "COc1cc2c(/C=C3\\C(=O)Nc4ccccc43)c[nH]c2cc1C"
test_target = "KM12 colon"
value_type = "log10(TGI)"
assay_result = -0.08

[[record]]
molecule = "CN(C)CCC(=O)Nc1ccc(-n2cc(-c3cccc(NC(=S)Nc4cccc(-c5cn(-c6ccc(NC(=O)CCN(C)C)cc6)nn5)c4)c3)nn2)cc1"
test_target = "KM12 colon"
value_type = "log10(TGI)"
assay_result = 1.53

[[record]]
molecule = "C/C(=N\\Nc1nc2ccccc2s1)c1ccncn1"
test_target = "KM12 colon"
value_type = "log10(TGI)"
assay_result = 1.22

[[record]]
molecule = "CCCCCCCC(=O)OCC/C=C/C1OC1C1OC(=O)/C=C\\C=C\\C(=O)N(C(C)=O)C(=O)/C=C(/C)CCC2OC2C1OC(=O)NC(C)=O (stereo not given)"
test_target = "KM12 colon"
value_type = "log10(TGI)"
assay_result = 1.07

[[record]]
molecule = "O=C1C(=O)c2c(nc3ccc(C(F)(F)F)cn23)-c2ccccc21"
test_target = "KM12 colon"
value_type = "log10(TGI)"
assay_result = 0.00


----------
- System: A549 NSCLC
- assay details: NCI tumour cell line growth inhibition, 48 h
value type: TGI

[[record]]
compound = "CCOP(=O)(/C=C/n1cc(C)c(=O)[nH]c1=O)OCC"
value_type = "TGI"
assay_result = "> 100 µM"

[[record]]
compound = "CC(C)C[C@@H](N)[C@@H](O)C(=O)N[C@H](C(=O)N[C@H](C(=O)N[C@@H](CC(=O)O)C(=O)O)C(C)C)C(C)C"
value_type = "TGI"
assay_result = "> 20 µM"

[[record]]
compound = "C=C1CCC[C@@H](C)C(O)[C@@H]2OC(=O)C(=C)[C@@H]2C[C@@H](OC(C)=O)[C@@]2(C)CC[C@@H]1O2 (stereo not given in full)"
value_type = "TGI"
assay_result = "> 50 µM"

[[record]]
compound = "COc1cc(C)c2c(c1)CN1CN2Cc2cc(OC)cc(C)c21"
value_type = "TGI"
assay_result = "> 100 µM"

[[record]]
compound = "CN(C)C(=S)/N=c1\\ss/c(=N\\C(=S)N(C)C)n1-c1cccc(Cl)c1"
value_type = "TGI"
assay_result = "> 100 µM"

[[record]]
compound = "Cn1c(=O)oc2cc(C3CCC(=O)N3Cc3csc(-c4ccccc4)n3)ccc21 (stereo not given)"
value_type = "TGI"
assay_result = "> 100 µM"

[[record]]
compound = "COc1cc(/C=N/NC(=O)c2cnn3c2NC(c2ccccc2)C3)ccc1OC1CCCC1 (stereo not given)"
value_type = "TGI"
assay_result = "3.86 µM"

[[record]]
compound = "C[s+]1c2ccccc2c2ccccc21"
value_type = "TGI"
assay_result = "> 100 µM"

[[record]]
compound = "CC(C)(C)C#COC(=O)c1ccccc1"
value_type = "TGI"
assay_result = "> 100 µM"

[[record]]
compound = "C=C1c2nc3ccccc3n2C=C(c2ccc(C)cc2)N1c1ccc(OC)cc1"
value_type = "TGI"
assay_result = "> 100 µM"

